biological target: Histamine H2 receptor (Homo sapiens, UniProt P25021); assay type: cell membranes, CHO-K1, Membrane; conditions: cho-k1; note: in other assays of this panel Not Active means under 50% inhibition at 10 µM
Sequence (P25021 whole entry): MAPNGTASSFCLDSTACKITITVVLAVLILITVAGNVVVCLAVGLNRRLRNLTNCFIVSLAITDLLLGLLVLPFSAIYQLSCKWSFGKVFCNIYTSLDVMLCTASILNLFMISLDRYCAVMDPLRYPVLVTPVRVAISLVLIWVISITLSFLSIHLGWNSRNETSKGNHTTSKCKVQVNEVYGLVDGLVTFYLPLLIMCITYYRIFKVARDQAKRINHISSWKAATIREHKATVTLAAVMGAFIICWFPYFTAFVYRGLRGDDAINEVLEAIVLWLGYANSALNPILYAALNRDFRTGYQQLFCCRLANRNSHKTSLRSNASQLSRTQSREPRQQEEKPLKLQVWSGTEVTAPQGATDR
observation.type: Ki

| substance | Ki |
| --- | --- |
| LEAD(IV) ACETATE | Not Active |
| CHROMIC CHLORIDE | Not Active |
| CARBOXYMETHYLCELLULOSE | Not Active |
| POVIDONE | Not Active |

# input for lookup
Problem: State the recorded Ki for this entry: COPPER(II) OXIDE
Solution: Not Active

====

biological target: Cathepsin G (Homo sapiens, UniProt P08311); assay: biochemical; assay type: tissue-based, Neutrophil; conditions: neutrophil; note: in other assays of this panel Not Active means under 50% inhibition at 10 µM;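 note: inhibition of Cathepsin G enzyme activity, tested on an AMC-conjugated peptide substrate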
Sequence (P08311 whole entry): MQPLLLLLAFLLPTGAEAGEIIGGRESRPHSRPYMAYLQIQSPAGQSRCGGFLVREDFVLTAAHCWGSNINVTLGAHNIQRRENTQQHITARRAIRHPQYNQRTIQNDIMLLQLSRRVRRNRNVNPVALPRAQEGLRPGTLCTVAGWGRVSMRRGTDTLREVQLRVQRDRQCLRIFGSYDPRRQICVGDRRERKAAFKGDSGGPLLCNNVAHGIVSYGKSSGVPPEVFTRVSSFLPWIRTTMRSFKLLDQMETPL
observation.type: IC50

Look over these answered cases.
| compound | result |
| --- | --- |
| Nc1ccc(C(=O)O)c(O)c1 | Not Active |
| CC(C)Cc1ccc([C@H](C)C(=O)O)cc1 | Not Active |
| Cc1cn([C@H]2C=C[C@@H](CO)O2)c(=O)[nH]c1=O | Not Active |
| OC[C@H]1O[C@@H]2O[C@H]3[C@H](O)[C@@H](O)[C@@H](O[C@H]4[C@H](O)[C@@H](O)[C@@H](O[C@H]5[C@H](O)[C@@H](O)[C@@H](O[C@H]6[C@H](O)[C@@H](O)[C@@H](O[C@H]7[C@H](O)[C@@H](O)[C@@H](O[C@H]1[C@H](O)[C@H]2O)O[C@@H]7CO)O[C@@H]6CO)O[C@@H]5CO)O[C@@H]4CO)O[C@@H]3CO | Not Active |
| O=C1CN(/N=C/c2ccc([N+](=O)[O-])o2)C(=O)N1 | Not Active |

Now look at this entry.
Problem: What IC50 appears in the records for this compound with Cathepsin G (Homo sapiens, UniProt P08311)? CCN(CCO)CCCC(C)Nc1ccnc2cc(Cl)ccc12 (stereo unspecified) [HYDROXYCHLOROQUINE]
Solution: Not Active

====

target: Muscarinic acetylcholine receptor M5 (Homo sapiens, UniProt P08912); type: cell membranes, CHO-K1, Membrane; details: cho-k1; note: in other assays of this panel Not Active means under 50% inhibition at 10 µM
Sequence (P08912 whole entry): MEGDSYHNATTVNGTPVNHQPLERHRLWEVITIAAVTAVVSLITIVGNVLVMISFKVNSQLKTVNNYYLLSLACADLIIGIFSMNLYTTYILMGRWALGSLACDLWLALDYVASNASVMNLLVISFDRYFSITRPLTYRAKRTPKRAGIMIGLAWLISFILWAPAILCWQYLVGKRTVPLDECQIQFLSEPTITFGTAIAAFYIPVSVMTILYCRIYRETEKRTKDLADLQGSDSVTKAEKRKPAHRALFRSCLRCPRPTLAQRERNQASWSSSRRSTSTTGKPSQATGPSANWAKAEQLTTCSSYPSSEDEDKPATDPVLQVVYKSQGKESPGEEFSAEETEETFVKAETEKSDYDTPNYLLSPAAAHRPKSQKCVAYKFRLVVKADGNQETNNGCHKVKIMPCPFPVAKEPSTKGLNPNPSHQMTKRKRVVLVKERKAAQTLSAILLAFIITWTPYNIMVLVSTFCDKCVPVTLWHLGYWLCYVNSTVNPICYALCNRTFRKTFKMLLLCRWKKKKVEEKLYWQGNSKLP
observation.type: IC50

Some compounds with known IC50 results, for comparison:
| compound | target.under.test | observation.type | result |
| --- | --- | --- | --- |
| CCN1C[C@]2(COC)[C@H](O)C[C@H](OC)[C@@]34[C@@H]5C[C@@]6(O)[C@H](OC(=O)c7ccccc7)[C@@H]5[C@@](OC(C)=O)([C@@H]([C@H](OC)[C@H]23)[C@@H]14)[C@@H](O)[C@@H]6OC | Muscarinic acetylcholine receptor M5 (Homo sapiens, UniProt P08912) | IC50 | Not Active |
| Cc1[nH]c(=O)c(C#N)cc1-c1ccncc1 | Muscarinic acetylcholine receptor M5 (Homo sapiens, UniProt P08912) | IC50 | Not Active |
| C=CCO | Muscarinic acetylcholine receptor M5 (Homo sapiens, UniProt P08912) | IC50 | Not Active |
| Cl.NC[C@H]1CC[C@H](C(=O)Oc2ccc(CCC(=O)O)cc2)CC1 [CETRAXATE HYDROCHLORIDE] | Muscarinic acetylcholine receptor M5 (Homo sapiens, UniProt P08912) | IC50 | Not Active |
| O=C(NCCN1CCOCC1)c1ccc(Cl)cc1 [MOCLOBEMIDE] | Muscarinic acetylcholine receptor M5 (Homo sapiens, UniProt P08912) | IC50 | Not Active |
| C=CCN1CC[C@]23c4c5ccc(O)c4O[C@H]2/C(=N/N=C2\CC[C@@]4(O)[C@H]6Cc7ccc(O)c8c7[C@@]4(CCN6CC=C)[C@H]2O8)CC[C@@]3(O)[C@H]1C5 | Muscarinic acetylcholine receptor M5 (Homo sapiens, UniProt P08912) | IC50 | Not Active |

--- query ---
Problem: Would you mind telling me what IC50 value was observed for CCN1CCN(c2cc3c(cc2F)c(=O)c(C(=O)O)cn3C2CC2)CC1 ?
Solution: Not Active

====

biological target: 5-hydroxytryptamine receptor 6 (Homo sapiens); type: cell membranes, HeLa, Membrane; details: hela; note: in other assays of this panel Not Active means under 50% inhibition at 10 µM
Sequence (P50406 whole entry): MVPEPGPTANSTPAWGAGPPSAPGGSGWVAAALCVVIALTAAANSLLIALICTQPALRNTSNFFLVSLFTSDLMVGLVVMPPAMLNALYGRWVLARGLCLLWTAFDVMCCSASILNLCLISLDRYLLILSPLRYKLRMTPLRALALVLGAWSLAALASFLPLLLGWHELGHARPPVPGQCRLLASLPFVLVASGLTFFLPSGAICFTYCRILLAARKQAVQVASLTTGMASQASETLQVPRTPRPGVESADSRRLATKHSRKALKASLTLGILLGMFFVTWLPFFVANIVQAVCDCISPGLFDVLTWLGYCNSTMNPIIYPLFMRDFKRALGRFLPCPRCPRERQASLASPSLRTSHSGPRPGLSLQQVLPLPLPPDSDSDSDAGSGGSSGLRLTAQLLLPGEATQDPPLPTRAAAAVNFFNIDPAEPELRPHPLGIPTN
observation.type: IC50

Worked examples follow.
| molecule | IC50 |
| --- | --- |
| CCOC(=O)C1=C(C)NC(C)=C(C(=O)OCC)C1c1ccccc1/C=C/C(=O)OC(C)(C)C | Not Active |
| Nc1ccc(Cc2ccc(N)cc2)cc1 | Not Active |
| COC(=O)C[C@](O)(CCC(C)(C)O)C(=O)O[C@@H]1C(OC)=C[C@]23CCCN2CCc2cc4c(cc2[C@H]13)OCO4 | Not Active |
| CCN(CC)CCNC(=O)c1cc(Cl)c(N)cc1OC [METOCLOPRAMIDE] | Not Active |
| Cc1ccc(S(=O)(=O)NC(=O)NN2CCCCCC2)cc1 [TOLAZAMIDE] | Not Active |
| CC(C)NCC(O)COc1ccc(CC(N)=O)cc1 (stereo not given) | Not Active |
| Cc1cnc(NC(=O)C2=C(O)c3ccccc3S(=O)(=O)N2C)s1 | Not Active |
| CCO | Not Active |

// input: 2 molecules below; output: IC50 for each
1. O=C1CN(/N=C/c2ccc([N+](=O)[O-])o2)C(=O)N1
2. CCC1(c2ccccc2)C(=O)NC(=O)NC1=O

Solution:
1: Not Active; 2: Not Active

====

assay: DRUGMATRIX: beta-Lactamase enzyme inhibition (substrate: Nitrocefin); parameters: species or system Bacillus cereus; conditions: Not Active = under 50% inhibition at 10 µM
observation.type: Ki

Look over these answered cases.
| compound | result |
| --- | --- |
| NS(=O)(=O)c1cc(C(=O)O)c(NCc2ccco2)cc1Cl [FUROSEMIDE] | Not Active |
| CC12CCC(CC1)C(C)(C)O2 [EUCALYPTOL] | Not Active |
| CC[C@H](C)C(=O)O[C@H]1CCC=C2C=C[C@H](C)[C@H](CC[C@@H]3C[C@@H](O)CC(=O)O3)[C@H]21 [MEVASTATIN] | Not Active |
| CC1=C(/C=C/C(C)=C/C=C/C(C)=C/C(=O)O)C(C)(C)CCC1 [TRETINOIN] | Not Active |

# context switch: different compound, same Ki
Problem: Which Ki value is on record for C[N+](C)(C)CCOP(=O)([O-])OC[C@H](O)CO ?
Solution: Not Active

====

target: Estrogen receptor (Homo sapiens, UniProt P03372); experiment: biochemical; note: in other assays of this panel Not Active means under 50% inhibition at 10 µM
Sequence (P03372 whole entry): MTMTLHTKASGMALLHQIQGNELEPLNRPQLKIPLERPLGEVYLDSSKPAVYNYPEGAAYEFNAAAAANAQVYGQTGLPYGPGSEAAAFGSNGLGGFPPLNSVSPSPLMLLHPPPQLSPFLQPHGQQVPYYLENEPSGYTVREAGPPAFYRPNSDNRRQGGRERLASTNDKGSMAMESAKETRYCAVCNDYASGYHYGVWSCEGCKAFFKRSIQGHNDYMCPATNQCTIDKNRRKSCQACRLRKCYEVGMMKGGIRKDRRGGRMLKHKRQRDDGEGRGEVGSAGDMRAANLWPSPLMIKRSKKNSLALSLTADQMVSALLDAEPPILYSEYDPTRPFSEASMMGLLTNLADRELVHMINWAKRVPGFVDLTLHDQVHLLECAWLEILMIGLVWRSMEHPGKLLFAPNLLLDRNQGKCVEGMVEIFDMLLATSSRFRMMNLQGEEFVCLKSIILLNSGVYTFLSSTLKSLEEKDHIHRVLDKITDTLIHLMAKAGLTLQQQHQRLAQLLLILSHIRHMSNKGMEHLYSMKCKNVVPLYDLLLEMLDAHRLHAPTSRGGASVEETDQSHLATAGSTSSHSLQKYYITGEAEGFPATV
observation.type: pIC50
One number for each entry, as −log10 of the molar value.

Problem: Give its pIC50 value. Item: C#C[C@]1(O)CC[C@H]2[C@@H]3[C@H](C)CC4=C(CCC(=O)C4)[C@H]3CC[C@@]21C
Solution: 6.36

====

biological target: Mitogen-activated protein kinase 14 (Homo sapiens, UniProt Q16539); design: species or system Escherichia coli; details: read-out: IC50; note: in other assays of this panel Not Active means under 50% inhibition at 10 µM;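 note: inhibition of p38alpha enzyme activity in a biochemical kinase assay, with myelin basic protein serving as substrate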
Sequence (Q16539 whole entry): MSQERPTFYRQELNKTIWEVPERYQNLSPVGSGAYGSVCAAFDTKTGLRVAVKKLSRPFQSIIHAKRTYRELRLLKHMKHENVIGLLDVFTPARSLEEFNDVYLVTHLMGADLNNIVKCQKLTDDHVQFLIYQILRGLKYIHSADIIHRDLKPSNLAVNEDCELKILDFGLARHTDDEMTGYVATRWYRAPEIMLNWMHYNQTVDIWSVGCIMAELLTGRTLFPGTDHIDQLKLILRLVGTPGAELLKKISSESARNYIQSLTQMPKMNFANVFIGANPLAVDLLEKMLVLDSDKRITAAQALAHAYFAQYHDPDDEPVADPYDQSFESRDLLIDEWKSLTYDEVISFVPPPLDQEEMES
Hi! Just check whether IC50 is below 3 µM. Below gives Met, equal or above gives Not met.

Before answering, review these 3 worked examples.
| compound | class.assignment |
| --- | --- |
| CC#C[C@]1(O)CC[C@H]2[C@@H]3CCC4=CC(=O)CCC4=C3[C@@H](c3ccc(N(C)C)cc3)C[C@@]21C | Not met |
| O=C(OC[C@H]1O[C@@H](OC(=O)c2cc(O)c(O)c(OC(=O)c3cc(O)c(O)c(O)c3)c2)[C@H](OC(=O)c2cc(O)c(O)c(OC(=O)c3cc(O)c(O)c(O)c3)c2)[C@@H](OC(=O)c2cc(O)c(O)c(OC(=O)c3cc(O)c(O)c(O)c3)c2)[C@@H]1OC(=O)c1cc(O)c(O)c(OC(=O)c2cc(O)c(O)c(O)c2)c1)c1cc(O)c(O)c(OC(=O)c2cc(O)c(O)c(O)c2)c1 | Met |
| O=C(Nc1ccc(Cl)c(Cl)c1)c1cc(Cl)cc(Cl)c1O [3,3',4',5-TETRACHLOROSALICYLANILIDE] | Met |

Problem: I'd appreciate it if you could check whether ClC1=C(Cl)[C@]2(Cl)[C@@H]3[C@@H]4C[C@@H]([C@H]5O[C@@H]45)[C@@H]3[C@@]1(Cl)C2(Cl)Cl has IC50 smaller than 3 µM.
Solution: Not met

Problem: Lab note: IC50 threshold 3 µM. Does this compound come in strictly under it? COC(=O)Nc1nc2ccc(Sc3ccccc3)cc2[nH]1
Solution: Not met

====

experiment: DRUGMATRIX: Imidazoline I2, Central radioligand binding (ligand: [3H] Idazoxan); type: cell membranes, Rattus norvegicus, Wistar, Cerebral cortex, Membrane; details: Not Active = under 50% inhibition at 10 µM; read-out: IC50
observation.type: pIC50
Answers are plain numbers, as −log10 of the molar value.

These recorded examples may help you get a feel for the data.
| compound | result.number |
| --- | --- |
| Cc1cc(C(C)(C)C)c(O)c(C)c1CC1=NCCN1 | 7.57 |
| CCN(CC)CCNC(=O)c1cc(Cl)c(N)cc1OC [METOCLOPRAMIDE] | 6.15 |

Below: the item to evaluate.
Problem: Fill blank: measured pIC50 of the compound CNC[C@H](O)c1ccc(O)c(O)c1 [EPINEPHRINE] is ____.
Solution: 6.63
